B1: Tudor domain-containing protein 3, residues 554 to 611; numbered along this chain, Q9H7E2 (parent)
chain: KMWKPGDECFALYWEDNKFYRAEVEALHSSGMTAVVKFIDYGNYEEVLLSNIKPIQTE

# Variants of: B1
# assay.protocol: abundance fitness (aPCA) (normalised: wild type 0, dead -1); higher = more abundant; growth selection in yeast, the domain comes from the species named
# stated.conditions: Homo sapiens
recorded.endpoint: abundance fitness

• N17W = -0.716
• G31W = -0.658
• N51V = -0.925
• N17Y = -0.604
• N43Y = 0.003
• T33R = -0.088
• S29Q = -0.11
• I52V = -0.184
• F19E = -0.706
• F19C = -1.02
• A22P = -0.976
• W3N = -0.737
• S50G = -0.155
• L12T = -0.861
• E8V = -0.122
• G6P = -0.985
• N17G = -0.105
• E45Y = -0.38
• F10K = -0.32
• L12D = -0.891
• F19V = -0.756
• L12N = -0.486
• K4P = -0.912
• F38Y = -0.479
• V35A = -0.277
• Y41D = 0.055
• V24I = -0.027
• L27I = -0.072
• P54G = -0.332
• L48A = -0.049
• T57E = 0.114
• L27F = -0.716
• S29I = -0.05
• W14L = -0.034
• Q56W = -0.189
• T57F = -0.123
• Y13P = -0.902
